So I've got a bunch of binders here, and I need their peptide exchange yield values.
TESTED TARGET: T1, HLA-A*02:01 (peptide-receptive MHC class I monomer from UV-ligand exchange) (human)
T1 construct: Monomers were captured on streptavidin-coated plates
PROTOCOL SUMMARY: UV-exchange ELISA (anti-b2m); exchange yield grade: + >=10%, ++ >=20%, +++ >=50%, ++++ >=75%

Q: Quick one: peptide exchange yield for FLAELPGSLSL [peptide FLAELPGSLSL (SEQ ID NO 6)] ?
A: 50 to 75%

Q: Bench note: what peptide exchange yield did SLDDFLATA [peptide SLDDFLATA (SEQ ID NO 100)] show?
A: 50 to 75%

Q: Can you look up the measured peptide exchange yield of YLKDGDVML [peptide YLKDGDVML (SEQ ID NO 20)] for me?
A: 50 to 75%

Q: Looking for the measured peptide exchange yield of TLTELRAFL [peptide TLTELRAFL (SEQ ID NO 147)] , can you help?
A: ≥ 75%

Q: Given the binder YLFDIAVSM [peptide YLFDIAVSM (SEQ ID NO 73)] , what is its reported peptide exchange yield?
A: 50 to 75%

Q: Would you mind telling me what peptide exchange yield value was observed for YLIGEKQHYL [peptide YLIGEKQHYL (SEQ ID NO 76)] ?
A: 50 to 75%

Provide the reported peptide exchange yield of each entry below, same order.
1. GLFAGLGGAGA [peptide GLFAGLGGAGA (SEQ ID NO 37)]
2. AVIEHLERL [peptide AVIEHLERL (SEQ ID NO 141)]

A:
50 to 75%
≥ 75%
